assay_method_text: binders of probe aFGF10 on microarray, primary screen, stem cell growth factor project, biochemical, small-molecule microarray, fluorescence 635/667 (AID 1071);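 note: score merges 667 nm spot intensity and signal to noise from triplicate slides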
condition_description: higher = more signal
readout_type: composite z-score
Provide a numeric answer; units are not to be included.

Input: Could you share which composite z-score value was measured for COc1ccc(-c2ccc3c(n2)CCCN3CC(O)CN2CCCc3nc(C)c(C)cc32)cc1 (stereo unspecified) ?
Output: 0.961

Input: Could you share which composite z-score value was measured for CC[C@@H](c1ccccc1)n1c(=O)n2n(c1=O)[C@H]1[C@H](O)[C@@H]3O[C@@H]3C(=NOCC(C)C)[C@H]1CC2 ?
Output: 0.0304

Input: Could you share which composite z-score value was measured for COc1ccc([Si](C)(C)[C@@H]2[C@@H](CC(=O)N3CCC[C@H]3CO)O[C@]3(C(=O)N(Cc4cccc(N5CCC5=O)c4)c4ccccc43)[C@H]2C)cc1 ?
Output: 0.45

Input: Could you share which composite z-score value was measured for C[C@@H](c1ccccc1)N1C(=O)[C@H]2[C@H]3[C@H](O)[C@H](O)CC(=NNC(=O)OCc4ccccc4)[C@H]3CC[C@H]2C1=O ?
Output: 0.201

Input: Could you share which composite z-score value was measured for COCCOC(=O)N1C(=O)[C@@]2(c3cc(C#Cc4ccc(OC)cc4)ccc31)[C@H](c1ccc(O)cc1)N1[C@H](c3ccccc3)[C@H](c3ccccc3)OC(=O)[C@H]1[C@@H]2C(N)=O ?
Output: 0.602

Input: Could you share which composite z-score value was measured for CC(C)C[C@@H]1NC(=O)[C@H]2C[C@@H](C(=O)NCCCCCCN(C)C)[C@@H](c3cccc(OCCO)c3)N2C1=O ?
Output: 0.789

Input: Could you share which composite z-score value was measured for COC(=O)CC=C[C@@H](C)[C@H](OC)c1ccccc1Br ?
Output: 0.178

Input: Could you share which composite z-score value was measured for CC(CCN1CCc2nc(-c3ccccc3)c(-c3ccccc3)cc2C1)=NOC[C@@H](C)[C@H](OCc1ccccc1)C(C)C ?
Output: -0.756

Input: Could you share which composite z-score value was measured for CCCCc1nc2c(c3c1C[C@H](C)OC3)CN(CCC(C)C)CC2 ?
Output: 0.509

Input: Could you share which composite z-score value was measured for O=C1[C@H]2[C@H]3[C@H](O)[C@H](O)CC(=NOC[C@@H](O)COCc4ccco4)[C@H]3CC[C@H]2C(=O)N1C1CCCCC1 ?
Output: -0.39

Input: Could you share which composite z-score value was measured for CC(C)N1CC=CC23O[C@@H]4C=CCCOC(=O)C4[C@H]2C(=O)N(CCCCCCO)[C@@H]3C1=O (stereo partly specified) ?
Output: -0.671

Input: Could you share which composite z-score value was measured for CCOC(=O)[C@H](Cc1ccccc1)NC(=O)CCC1CC(OC(=O)NCc2ccc3c(c2)OCO3)CC2(CCCC(COC(=O)NCc3cccc(C(F)(F)F)c3)O2)O1 (stereo partly specified) ?
Output: 0.0907

Input: Could you share which composite z-score value was measured for C=CC[C@@H]1C=C[C@H](ON=C[C@@H](OC)[C@H](C)C=CCC(=O)OC)[C@@H](CO)O1 ?
Output: 0.223

Input: Could you share which composite z-score value was measured for CCOC(=O)NN=C1C[C@@H](O)[C@@H](O)[C@@H]2[C@@H]3C(=O)N(C[C@@H]4CCCO4)C(=O)[C@@H]3CC[C@@H]12 ?
Output: 0.454

Input: Could you share which composite z-score value was measured for CCN1C(=O)[C@H]2[C@H]3[C@H](O)C=CC(=O)[C@@H]3CC[C@H]2C1=O ?
Output: 0.393

Input: Could you share which composite z-score value was measured for CC(CCN1CCCCc2nc(C)c(C)cc21)=NOC(C)CN1CCCCc2nc(C)c(C)cc21 (stereo unspecified) ?
Output: 0.682

Input: Could you share which composite z-score value was measured for CCOC(=O)C1=CCC(c2cc3ccccc3[nH]2)NC1 (stereo unspecified) ?
Output: -0.355

Input: Could you share which composite z-score value was measured for COc1cccc([C@H]2Oc3ccc(OC)cc3C(=NOC(C)CN3CCCc4nc(C)c(C)cc43)[C@@H]2O)c1 (stereo partly specified) ?
Output: 0.32

Input: Could you share which composite z-score value was measured for CN(C)C(=O)[C@@]1(Cc2ccccc2)N=C(c2ccc(OCCCO)cc2)O[C@H]1c1ccccc1CN=[N+]=[N-] ?
Output: 1.13

Input: Could you share which composite z-score value was measured for COC(=O)[C@H](C)NC(=O)CCC1CC(OC(=O)NCc2cccc3ccccc23)CC2(CCCC(COC(=O)NCCc3ccc(Cl)cc3)O2)O1 (stereo partly specified) ?
Output: 0.487

Input: Could you share which composite z-score value was measured for C[C@@H]1CCC2C(=O)N(Cc3ccccc3)C[C@@H](O)CN2[C@H]1c1ccc(Br)cc1 (stereo partly specified) ?
Output: 0.84

Input: Could you share which composite z-score value was measured for COC(=O)[C@H](C)NC(=O)CCC1CC(OC(=O)NCCc2ccc(F)cc2)CC2(CCCC(COC(=O)NCCc3ccc(Cl)cc3)O2)O1 (stereo partly specified) ?
Output: 0.812

Input: Could you share which composite z-score value was measured for C[N+](C)(C)CCCCCCNC(=O)[C@@H]1C[C@@H]2C(=O)N3CCC[C@H]3C(=O)N2[C@@H]1c1cccc(OCCO)c1 ?
Output: -0.239

Input: Could you share which composite z-score value was measured for CCCNC(=O)[C@@H]1c2ccccc2C(=O)N(c2ccc(C)cn2)[C@H]1c1ccc(CO)cc1 ?
Output: -0.857

Input: Could you share which composite z-score value was measured for C=C(/C(=C/C[C@H](OC(C)=O)c1ccc(OCCO)cc1)c1cnc2ccccc2c1)C(C)C ?
Output: 1.11

Input: Could you share which composite z-score value was measured for CCCNC(=O)OC[C@H]1O[C@H](CCON=CC[C@@H]2C=C[C@H](OC(C)=O)[C@@H](COC(C)=O)O2)C=C[C@@H]1Oc1ccc(OC)cc1 ?
Output: 0.423

Input: Could you share which composite z-score value was measured for CCCC[C@H]1OB(O)C[C@H]2C1=C(C)C[C@H]1C(=O)N(C)C(=O)[C@H]12 ?
Output: 0.719

Input: Could you share which composite z-score value was measured for CC(=O)OC[C@H]1O[C@@H](ON=C(C)CCN2CCc3nc(-c4ccccc4)c(-c4ccccc4)cc3C2)[C@H](OC(C)=O)[C@@H](OC(C)=O)[C@@H]1OC(C)=O ?
Output: 0.958

Input: Could you share which composite z-score value was measured for CCN1C(=O)[C@H]2[C@H]3[C@H](O)[C@H](O)CC(=NOCc4ccccc4)[C@@H]3CC[C@H]2C1=O ?
Output: 0.31

Input: Could you share which composite z-score value was measured for Cc1cc2c(nc1C)CCCN2CC(O)CN1CCN(C)CC1 (stereo unspecified) ?
Output: 0.575

Input: Could you share which composite z-score value was measured for CN1C(=O)C2C=CC(C(O)c3ccc(Br)cc3)N(N(c3ccccc3)c3ccccc3)C2C1=O (stereo unspecified) ?
Output: 0.125
